Biological target: RBL-1 Cell 5-Lipoxygenase (Rattus norvegicus, UniProt P12527)
Construct: the supernatant was saved as the source of enzymes; endogenous in cells; host or cells: RBL-1 (rat basophilic leukemia cells), 10,000×g supernatant of homogenate
Sequence (P12527 1-673): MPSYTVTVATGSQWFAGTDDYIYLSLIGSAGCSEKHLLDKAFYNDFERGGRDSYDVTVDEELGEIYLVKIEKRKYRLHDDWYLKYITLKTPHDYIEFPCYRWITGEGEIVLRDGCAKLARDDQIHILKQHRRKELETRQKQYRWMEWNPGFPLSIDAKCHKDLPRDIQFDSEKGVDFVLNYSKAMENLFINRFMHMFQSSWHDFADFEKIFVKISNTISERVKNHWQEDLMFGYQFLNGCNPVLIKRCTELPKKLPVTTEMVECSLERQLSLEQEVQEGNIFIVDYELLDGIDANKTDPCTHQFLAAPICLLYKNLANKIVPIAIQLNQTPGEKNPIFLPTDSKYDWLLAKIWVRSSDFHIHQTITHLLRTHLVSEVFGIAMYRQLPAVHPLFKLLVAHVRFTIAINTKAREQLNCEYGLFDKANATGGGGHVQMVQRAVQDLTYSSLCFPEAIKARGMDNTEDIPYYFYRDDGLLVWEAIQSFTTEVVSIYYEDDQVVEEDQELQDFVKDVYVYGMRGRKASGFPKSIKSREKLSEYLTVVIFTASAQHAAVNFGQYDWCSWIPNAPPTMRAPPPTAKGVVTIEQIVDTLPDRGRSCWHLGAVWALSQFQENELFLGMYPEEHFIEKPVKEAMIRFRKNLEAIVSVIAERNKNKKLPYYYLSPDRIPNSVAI
Assay: Procedure II: 5-lipoxygenase inhibition in disrupted RBL-1 cells (supernatant as enzyme source)
Assay type: biochemical
Documented % INHIBITION 5-LO (Procedure II) across a set of compounds
Report the value in % with no unit label.

Worked set:
structureSmiles | measurementName | measuredValue
COc1ccc(-n2nc(COC(=O)NO)c(Cl)c2-c2ccc(Cl)cc2)cc1 | % INHIBITION 5-LO (Procedure II) | 25
COc1ccc(-n2nc(CCCOC(=O)N(C)O)cc2-c2ccc(Cl)cc2)cc1 | % INHIBITION 5-LO (Procedure II) | 96
COc1ccc(-n2nc(CCOC(=O)N(C)O)c(Br)c2-c2ccc(Cl)cc2)cc1 | % INHIBITION 5-LO (Procedure II) | 72

Would you mind telling me what % INHIBITION 5-LO (Procedure II) value was observed for COc1ccc(-n2nc(COC(=O)N(O)C(C)C)c(Cl)c2-c2ccc(Cl)cc2)cc1 ?
83
